Recorded measurements of kon, one per entry
# system-tested: T1, monovalent hVISTA-ECD (amino acids 32-193 of SEQ ID NO: 1 with a 7xHis tail) (human, UniProt Q9H7M9 33-193)
# T1 construct: analyte of the SPR assays; also called huVISTA-His; human VISTA-ECD
# T1 sequence (Q9H7M9 other isoform, or with tags, fused parts or gaps limits assumed): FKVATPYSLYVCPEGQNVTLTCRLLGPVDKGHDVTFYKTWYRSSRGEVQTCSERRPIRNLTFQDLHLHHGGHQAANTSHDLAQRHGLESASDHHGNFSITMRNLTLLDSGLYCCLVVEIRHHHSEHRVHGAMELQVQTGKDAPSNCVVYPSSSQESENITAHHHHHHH
# method-description: SPR 37C, Ab on Protein A, hVISTA-ECD 50-5 nM, pH 6.0, average
Kindly provide the numeric value in M⁻¹ s⁻¹ only, without the unit symbol.

Previously resolved entries follow.
| binder | measurement-name | unit-abbreviation | readout-value |
| --- | --- | --- | --- |
| P1-068752 (antibody, human IgG1, kappa, V domains shown, IgG1.3) VH: QVQLVESGGGVVQPGRSLRLSCAASGFTFSSYAMHWVRQAPGKGLEWVAEIWYDGSNKDYADSVKGRFTISRDNSKNTLYLQMNSLRAEDTAVYYCARDSGFYDSYYFDEWGQGTLVTVSS VL: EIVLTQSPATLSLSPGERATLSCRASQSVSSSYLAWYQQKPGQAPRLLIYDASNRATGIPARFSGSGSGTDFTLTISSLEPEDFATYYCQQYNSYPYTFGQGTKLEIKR | kon | M⁻¹ s⁻¹ | 6.1e+06 |
| P1-068736 (antibody, human IgG1, kappa, V domains shown, IgG1.3) VH: QVQLVESGGGVVQPGRSLRLSCAASGFTFSEYAMHWVRQAPGKGLEWVAIDWYDGSNKDYADSVKGRFTISRDNSKNTLYLQMNSLRAEDTAVYYCARDSGFYDSYYFDDWGQGTLVTVSS VL: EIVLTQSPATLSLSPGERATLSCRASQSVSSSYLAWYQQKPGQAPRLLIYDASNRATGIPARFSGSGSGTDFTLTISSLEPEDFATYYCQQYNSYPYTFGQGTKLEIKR | kon | M⁻¹ s⁻¹ | 8.4e+06 |

Alright, here's another binder for you.
Assign kon to the following record: P1-068744 (antibody, human IgG1, kappa, V domains shown, IgG1.3; also called P1-068744-7) VH: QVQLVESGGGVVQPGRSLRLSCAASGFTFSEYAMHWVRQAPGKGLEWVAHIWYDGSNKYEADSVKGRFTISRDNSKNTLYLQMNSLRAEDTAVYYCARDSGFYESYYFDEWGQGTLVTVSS VL: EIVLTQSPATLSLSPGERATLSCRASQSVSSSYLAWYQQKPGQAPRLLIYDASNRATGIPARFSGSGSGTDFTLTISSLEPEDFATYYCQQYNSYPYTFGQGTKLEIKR
1.3e+06
